TARGET_DESC: NADPH oxidase 5 (Homo sapiens) (UniProt Q96PH1)
Sequence (Q96PH1 whole entry, looked up): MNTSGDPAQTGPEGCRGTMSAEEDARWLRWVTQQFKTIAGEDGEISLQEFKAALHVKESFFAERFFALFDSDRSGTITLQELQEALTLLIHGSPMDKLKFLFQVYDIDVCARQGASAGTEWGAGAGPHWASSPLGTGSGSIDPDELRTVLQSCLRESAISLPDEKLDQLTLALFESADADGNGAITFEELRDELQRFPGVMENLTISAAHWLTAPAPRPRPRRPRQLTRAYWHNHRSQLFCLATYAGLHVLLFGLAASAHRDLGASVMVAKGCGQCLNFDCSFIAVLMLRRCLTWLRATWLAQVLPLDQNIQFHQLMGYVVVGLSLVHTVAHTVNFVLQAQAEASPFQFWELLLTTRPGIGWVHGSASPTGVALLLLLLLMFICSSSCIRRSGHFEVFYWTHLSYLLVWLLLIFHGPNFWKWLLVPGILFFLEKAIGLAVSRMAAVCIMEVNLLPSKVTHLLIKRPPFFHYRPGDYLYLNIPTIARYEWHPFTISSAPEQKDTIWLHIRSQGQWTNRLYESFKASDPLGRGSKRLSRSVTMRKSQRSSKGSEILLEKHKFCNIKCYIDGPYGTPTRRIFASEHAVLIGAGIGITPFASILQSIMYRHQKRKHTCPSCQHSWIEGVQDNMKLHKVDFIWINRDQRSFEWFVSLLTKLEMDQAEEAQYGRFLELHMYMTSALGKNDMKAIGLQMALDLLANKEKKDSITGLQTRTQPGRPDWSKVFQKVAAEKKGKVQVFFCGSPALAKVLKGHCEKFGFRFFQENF
ASSAY_NOTES: NOX5-dependent H2O2 signal modulators, primary screen, NOX inhibitor project, cell-based, HEK293-NOX5, Amplex Red fluorescence (AID 1161)
EXPERIMENTAL_CONTEXT: HEK293-NOX5, ionomycin, 45 min, higher = more signal
Below: a set of entries, each annotated with reported z-score.
MEASURED_PARAMETER: z-score

COMPOUND	MEASURED_PARAMETER	NUMBER
Cc1ccc(S[C@]2(C(=O)NC(C)C)CC(=O)N(Cc3ccccc3)[C@@H]2c2ccc(CO)cc2)cc1	z-score	-0.771
COc1ccc(C(O)C2C=CC3C(=O)N(c4ccccc4)C(=O)C3N2Nc2ccccc2F)c2ccccc12 (stereo not drawn)	z-score	-2.13
C=C(CC1([C@@H](NP(=O)(c2ccccc2)c2ccccc2)[C@H]2C[C@@H]2CCCC)CC1)c1cccc(OC)c1	z-score	-2.78
COc1ccc(C(=O)Nc2cccc(CN3C(=O)[C@]4(O[C@H](CC(=O)N(CCO)Cc5ccccc5)[C@@H]([Si](C)(C)c5ccc(OC)cc5)[C@@H]4C)c4ccccc43)c2)cc1	z-score	3.51
COC(=O)C(CC#Cc1ccc2c(c1)[C@]1(C(=O)N2)[C@H](c2ccccc2OCCO)N2[C@H](c3ccccc3)[C@H](c3ccccc3)OC(=O)[C@H]2[C@@H]1C(=O)N1CCN(c2ncccn2)CC1)C(=O)OC	z-score	2.23
COCCOC(=O)N1C(=O)[C@@]2(c3cc(C#CCNC(N)=O)ccc31)[C@H](C(N)=O)[C@H]1C(=O)O[C@H](c3ccccc3)[C@H](c3ccccc3)N1[C@@H]2c1ccc(O)cc1	z-score	0.00933
COCCCNC(=O)[C@@]1(Cc2ccccc2I)c2ccccc2C(=O)N(C2CCCCC2)[C@H]1c1ccc(CO)cc1	z-score	-3.06
COc1ccc([Si](C)(C)[C@H]2[C@H](CC(=O)N3CCC[C@H]3CO)O[C@@]3(C(=O)N(Cc4cccc(N5CCCCC5=O)c4)c4ccccc43)[C@@H]2C)cc1	z-score	4.92
COc1ccc(CCNC(=O)[C@@H]2c3ccccc3C(=O)N(Cc3cc(F)cc(C(F)(F)F)c3)[C@H]2c2ccc(CO)cc2)cc1	z-score	-2.21
CC(C)(C)OC(=O)N1[C@@H](C=C(Br)Br)COC1(C)C	z-score	-0.152
COCCCNC(=O)[C@@]1(CCC(=O)OC(C)(C)C)N=C(c2ccc(OCCCO)cc2)O[C@H]1c1ccccc1	z-score	0.188
COC(=O)C(CC#Cc1ccc2c(c1)[C@]1(C(=O)N2)[C@H](C(=O)NC[C@H](O)c2ccccc2)[C@H]2C(=O)O[C@H](c3ccccc3)[C@H](c3ccccc3)N2[C@@H]1c1ccc(O)cc1)C(=O)OC	z-score	1.33
COC(=O)[C@@]1(Cc2ccc(F)cc2)[C@@H]2C(=CC(=O)[C@H]2CC(=O)C(=O)N2CCCC2)CN1C(=O)c1ccccc1	z-score	-4.38
COc1ccc([Si](C)(C)[C@H]2[C@H](CC(=O)N3CCC[C@H]3CO)O[C@@]3(C(=O)N(C)c4c(Br)cc(C)cc43)[C@@H]2C)cc1	z-score	3.04
C=C1C(=O)C=C2CN(C(=O)c3ccccc3)[C@@](Cc3ccc(F)cc3)(C(=O)OC)[C@@H]12	z-score	-3.73
COCCCNC(=O)[C@@]1(Cc2ccccc2I)c2ccccc2C(=O)N(Cc2ccccc2C(F)(F)F)[C@H]1c1ccc(CO)cc1	z-score	-1.42
COc1cc2c(cc1O)C(C)N(Cc1sc3ccccc3c1Cl)CC2 (stereo not drawn)	z-score	-3.2
C=CCNC(=O)[C@H]1[C@@H]2C(=O)O[C@@H](c3ccccc3)[C@@H](c3ccccc3)N2[C@@H](c2ccc(OCCO)cc2)[C@]12C(=O)Nc1ccc(C#Cc3ccc(OC)cc3)cc12	z-score	1.43
C[N+](C)(C)CCCC[C@@H]1NC(=O)[C@H]2C[C@@H](C(=O)O)[C@@H](c3ccc(O)cc3)N2C1=O	z-score	-0.411
COc1ccc(C(=O)Nc2ccc(CN3C(=O)[C@@]4(O[C@@H](CC(=O)N(CCO)Cc5ccccc5)[C@H]([Si](C)(C)c5ccc(OC)cc5)[C@H]4C)c4ccccc43)cc2)cc1	z-score	2.59
COc1cc(Cc2cc3c(c(-c4ccccc4)n2)[Si](C(C)C)(C(C)C)OC3)cc(OC)c1OC	z-score	0.0407
C=CCNC(=O)[C@@H]1[C@H]2C(=O)O[C@H](c3ccccc3)[C@H](c3ccccc3)N2[C@H](c2ccc(O)cc2)[C@@]12C(=O)Nc1ccc(C#CC3=CCCCC3)cc12	z-score	0.578
CN1C(=O)C2C=CC(C(O)COCc3ccccc3)N(Nc3ccc([N+](=O)[O-])cc3[N+](=O)[O-])C2C1=O (stereo not drawn)	z-score	-0.914
O=C(CS)NCCCCCCNC(=O)[C@H]1C[C@H]2C(=O)NCC(=O)N2[C@H]1c1cccc(OCCO)c1	z-score	0.769
CC(C)(C)OC(=O)CC[C@@]1(C(N)=O)N=C(c2ccc(OCCCO)cc2)O[C@@H]1c1ccccc1CN=[N+]=[N-]	z-score	0.369
CCOC(=O)C[C@H]1[C@H](OC(=O)c2ccccc2-c2ccccc2)[C@@H](NC(=O)CC(C)C)c2cc(OCCCO)ccc2N1C(=O)c1ccccc1	z-score	-1.19
CC(C)N1C(=O)[C@@]2(Cc3ccccc31)c1ccccc1C(=O)N(Cc1ccccc1C(F)(F)F)[C@H]2c1ccc(CO)cc1	z-score	0.56
CCCC1(C(=O)OC)C=C2C(=C(C(C)C)C(=O)C2C)CN1 (stereo not drawn)	z-score	-3.15

----------
Below: a set of entries, each annotated with reported composite z-score.
TARGET_DESC: Focal adhesion kinase 1 (Homo sapiens)
ASSAY_NOTES: small-molecule microarray binders of FAK, primary screen, biochemical, 635/667 nm fluorescence, BSA, DTT (AID 1130);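 further: composite of spot emission at 667 nm and signal to noise over triplicate slides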
EXPERIMENTAL_CONTEXT: PTK2 binding, 635 nm fluorescence, higher = more signal
MEASURED_PARAMETER: composite z-score

> print(dat)
                                   compound  measured.parameter  number
1  CCOC(=O)C[C@H]1[C@H](OC(=O)c2cc3ccccc3oc2=O)[C@@H](NC(=O)c2ccc(-c3ccccc3)cc2)c2cc(OCCCO)ccc2N1C(=O)Cc1ccc(OC)cc1   composite z-score   0.414
2  C=C(C)C1CN([C@H](CO)c2ccccc2)C(=O)/C1=C\c1ccccc1 (stereo partly drawn)   composite z-score  -0.234
3  C=CCNC(=O)[C@@H]1[C@H]2C(=O)O[C@H](c3ccccc3)[C@H](c3ccccc3)N2[C@H](c2ccc(O)cc2)[C@@]12C(=O)Nc1ccc(C#CC3=CCCCC3)cc12   composite z-score   0.721

----------
Below: a set of entries, each annotated with reported composite z-score.
ASSAY_NOTES: binders from COS7 lysate, DM2A8 probe, primary screen, torsin A project, cell lysate, small-molecule microarray, fluorescence 635/667 (AID 1065)
EXPERIMENTAL_CONTEXT: higher = more signal, COS7 lysate expressing mutant human TOR1A
MEASURED_PARAMETER: composite z-score

> print(dat)
                                   compound  number
1  O=C1OC[C@@H](c2ccccc2)n2cc(/C=C/c3ccccc3)cc21  -0.382
2  CO[C@H]1O[C@H](CO)[C@@H](OC(=O)Nc2cccc(F)c2)[C@H](OC(=O)c2cc3ccccc3[nH]2)[C@H]1OC(=O)c1cc2ccccc2[nH]1  -0.108
3  [N-]=[N+]=NCc1ccccc1[C@H]1OC(c2ccc(OCCCO)cc2)=N[C@@]1(Cc1ccccc1N=[N+]=[N-])C(=O)O    1.08
4  CCCCN1CC=CC23O[C@@H]4/C=C\CCC(C)OC(=O)C4[C@H]2C(=O)N(CCO)[C@@H]3C1=O (some centres undefined)    1.97

----------
ASSAY_NOTES: anti-His antibody binders, primary screen, artefact control for SMM control protein annotation, biochemical, small-molecule microarray, 635 nm fluorescence (AID 1128);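 further: score merges feature fluorescence with signal-to-noise for each printed compound spot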
EXPERIMENTAL_CONTEXT: anti-His Alexa647 antibody binding, higher = more signal
MEASURED_PARAMETER: composite z-score

COMPOUND	NUMBER
COc1ccc([Si](C)(C)[C@H]2[C@H](CC(=O)N(CCO)Cc3ccccc3)O[C@@]3(C(=O)N(Cc4ccc(N5C(=O)c6cccc7cccc5c67)cc4)c4ccccc43)[C@@H]2C)cc1	0.53
C=CCNC(=O)[C@H]1[C@@H]2C(=O)O[C@@H](c3ccccc3)[C@@H](c3ccccc3)N2[C@@H](c2ccc(O)cc2)[C@]12C(=O)N(C(=O)OCCOC)c1ccc(C#Cc3ccc(OC)cc3)cc12	0.91
COc1ccc([Si](C)(C)[C@@H]2[C@@H](CC(=O)N3Cc4ccccc4C[C@H]3CO)O[C@]3(C(=O)N(Cc4ccc(I)cc4)c4ccccc43)[C@H]2C)cc1	0.521
COc1ccc([Si](C)(C)[C@H]2[C@H](CC(=O)N3CCC[C@H]3CO)O[C@@]3(C(=O)N(C)c4c(Br)cc(C)cc43)[C@@H]2C)cc1	1.15
Cc1ccc(S[C@]2(C(=O)NC(C)C)CC(=O)N(Cc3ccccc3)[C@@H]2c2ccc(CO)cc2I)cc1	-1.01
COCCCNC(=O)[C@@]1(c2ccc([N+](=O)[O-])cc2)CC(=O)N(C2CCCCC2)[C@@H]1c1ccc(CO)cc1I	3.3
O=C1O[C@H](c2ccccc2)[C@H](c2ccccc2)N2[C@H]1[C@@H](C(=O)O)[C@]1(C(=O)Nc3ccc(C#CC4(O)CCCCCC4)cc31)[C@H]2c1ccccc1OCCO	1.16
COC(=O)[C@@]1(Cc2ccc(F)cc2)[C@H]2c3cc(C(=O)N4CCCC4)n(CCc4c[nH]c5cc(F)ccc45)c3C[C@H]2CN1C(=O)c1ccccc1	1.43
COc1ccc(C#Cc2ccc3c(c2)[C@]2(C(=O)N3)[C@H](c3ccccc3OCCO)N3[C@H](c4ccccc4)[C@H](c4ccccc4)OC(=O)[C@H]3[C@@H]2C(=O)NC[C@H](O)c2ccccc2)cc1	1.05
CCCCCN1CC=CC23O[C@@H]4/C=C\CCCOC(=O)C4[C@H]2C(=O)N(CCO)[C@@H]3C1=O (some centres not stated)	2.49
Cc1ccc(S[C@]2(C(=O)NCc3ccccc3)CC(=O)N(Cc3ccccc3C(F)(F)F)[C@@H]2c2ccc(CO)cc2I)cc1	1.53
COCCOC(=O)N1C(=O)[C@@]2(c3cc(C#CC4=CCCCC4)ccc31)[C@H](c1ccc(O)cc1)N1[C@H](c3ccccc3)[C@H](c3ccccc3)OC(=O)[C@H]1[C@@H]2C(=O)N1CCc2cc(OC)c(OC)cc2C1	1.38
